B1: glmS ribozyme (parent)
chain: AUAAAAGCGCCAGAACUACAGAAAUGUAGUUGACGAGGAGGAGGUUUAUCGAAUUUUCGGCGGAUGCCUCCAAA

- Variants of: B1
- Assay Summary: self-cleavage kobs at 40 uM GlcN6P; higher = faster cleavage; RNA array
- Run Parameters: with glucosamine-6-phosphate
Fewer inactive variants are shown than the library holds.
Endpoint Label: self-cleavage kobs at 40 uM GlcN6P

[[record]]
query_sequence = "AUAAAAGCGCCAGAACUACAGAAAUGUAGUUGACGAGGAGGAGUUUUAUCGAAUUUUCUGCGGAGGCCUCCAAA"
endpoint_label = "self-cleavage kobs at 40 uM GlcN6P"
result = "< 1e-05 s⁻¹"

[[record]]
query_sequence = "AUAAAAUCGCCAGAACUACAGAAAUGUAGUUGACUAGGAGGAGGUAUAUCGAAUUUUCGGCGGAUGUCCCCAAA"
endpoint_label = "self-cleavage kobs at 40 uM GlcN6P"
result = "< 1e-05 s⁻¹"

[[record]]
query_sequence = "AUAAAAGCGCCAGAACUACAGAAAUGUAGCUGACGAGGAGGAGGUUUAUCGAAUUUUCGGCGGAUGCGUCCAAA"
endpoint_label = "self-cleavage kobs at 40 uM GlcN6P"
result = "3.15e-05 s⁻¹"

[[record]]
query_sequence = "AUAAAAGCGCCAGAACUACAGAAAUGUAGUUGACGAGGAGGUGGUUUAUCGAAUUUUAGGCGGAUGCCUCCAAA"
endpoint_label = "self-cleavage kobs at 40 uM GlcN6P"
result = "< 1e-05 s⁻¹"

[[record]]
query_sequence = "AUAAAAGCGCCAGCACUACAGAAAUGUAGUUGUCGAGGAGGAGGUUUAUCGAUUUGUCGGCGGAUGCCUCCAAA"
endpoint_label = "self-cleavage kobs at 40 uM GlcN6P"
result = "< 1e-05 s⁻¹"

[[record]]
query_sequence = "AUAAAAGCGCCAGAACUACAGAAAUGUAGUUGACGAGGAGAAGGUUUAUCGAAUUUUCGGCGGAUGCCUCUAAA"
endpoint_label = "self-cleavage kobs at 40 uM GlcN6P"
result = "3e-05 s⁻¹"

